EXPERIMENTAL DETAILS: Primary fluorescence-based thiol-reactive (MSTI) qHTS assay for identification of artifact compounds. (AID 1845221); also: nearly all actives have a fitted effect of over 65% in size
CONDITIONS USED: MSTI thiol-reactivity probe, 1 h; series mostly up to 53.8 µM
Results filed as inconclusive are left out. Calls of active or inactive are those of the source. Calls follow the shape of the dose curve; as a rule, active = well fitted inhibition curve with a large enough effect; inconclusive = small, poorly fitted or top-dose-only effect; inactive = no such curve, though single readings can be large or run the other way.
Answer with one of the outcomes given here: active, inactive

COMPOUND | CLASS ASSIGNMENT
COc1cc2c(cc1OC)CN(C(=O)/C=C/c1c(-c3ccccc3)n(C)c3ncccc13)CC2 | inactive
COc1ccc(Cl)c(Nc2ncnc3cc(OCC4CCN(C)CC4)c(OC)cc23)c1 | inactive
C=C1C(=O)O[C@@H]2C3C(=C(C)[C@@H](O)[C@@H](OC(=O)/C(=C/C)COC(C)=O)[C@@H]12)C(=O)[C@H]1O[C@@]31C (stereo partly drawn) | inactive
COC(=O)C[C@H]1C(C)(C)[C@H](OC(=O)c2ccccc2)C2CC3=C4CC(=O)O[C@@H](c5ccoc5)[C@]4(C)CCC3[C@@]1(C)C2=O (stereo partly drawn) | inactive
NS(=O)(=O)c1ccc(N2CCN(CC[C@@H]3OCCc4ccccc43)CC2)cc1 | inactive
CC(C)NCCCn1c(Sc2cc3c(cc2I)OCO3)nc2c(N)ncnc21 | inactive
C=C(C)C(=O)OC1CC(CO)CCC/C(CO)=C/C2OC(=O)C(=C)C21 (stereo not drawn) | inactive
COc1cc2c(cc1O)C1(Cc3ccc4c(c3C1O)OCO4)[N+](C)([O-])CC2 (stereo not drawn) | active

Returns: the outcome recorded for "O=C(Nc1ccc(N2C(=O)[C@@H]3[C@H](C2=O)[C@@H]2C=C[C@H]3C2)c(Cl)c1)c1ccccn1" in this assay.
inactive

What did this assay record as the result for "NC(N)=N/N=C/c1ccccc1Cl" ?
inactive

Hello, I am checking results. What call was entered for "CC(=O)OC/C(=C/C(=O)O)CC[C@@H]1C(C=O)=CC[C@@H]2C(C)(C)CCC[C@@]12C" ?
inactive

Recorded test outcome, item "CN(C)CCOc1cc(NS(=O)(=O)c2c(Cl)cc(C(F)(F)F)cc2Cl)ccc1Cl"
inactive

// outcome(item) with item = "COc1ccccc1S(=O)(=O)Nc1ccc2c(c1)CN(C)C(=O)N2"
inactive

What is the recorded call for this compound in the test? "COc1ccc(NC(=O)c2ccc(C(=N)N(C)C)cc2)c(C(=O)Nc2ccc(Cl)cn2)c1"
inactive

Per the assay record, what outcome was assigned to CCOC(=O)N1CCC(CN(Cc2ccc(Cl)cc2)Cc2ccc([N+](=O)[O-])s2)C1 (stereo not drawn) ?
active

Recorded test call requested for "COc1ccc(Oc2c(Cl)cnn(-c3cc(C)cc(C)c3)c2=O)cc1"
inactive

Kindly provide the recorded test outcome for the following compound: "C1=C/COCc2cc(ccc2OCCN2CCCC2)Nc2nccc(n2)-c2cccc(c2)COC/1"
inactive

Fill in: this test's call for "O=c1[nH]c2cccc(N3CCN(Cc4ccc(-c5ccccc5)cc4)CC3)c2o1" is ___
inactive

Please share the test call associated with "COc1cc(/C=C2\CC[C@H]3COC[C@@H](c4cc(F)c(F)c(F)c4)N3C2=O)ccc1-n1cnc(C)c1" .
inactive

Record request — test call for "Clc1ccc(Nc2nc3ccccc3c3nc(C4CCCCC4)[nH]c23)cc1Cl"
inactive

In this assay, the call recorded for "C=C1C(=O)O[C@@H]2C=C(COC(C)=O)CC/C=C(\CO)CC[C@@H]12" was what?
inactive

Short answer needed: outcome of this test for "Cc1[nH]c(/C=C2\C(=O)Nc3cc(-c4ccccc4)ccc32)c(C)c1CCC(=O)O" ?
active

Test call, this compound: "NC(N)=NC(=O)c1cnn(-c2cccc3ncccc23)c1C1CC1"
inactive

Call for entry "CC(C)c1noc(C2CCN(c3ncnc(Nc4ccc(S(C)(=O)=O)cc4F)c3[N+](=O)[O-])CC2)n1" :
inactive

What did this assay record as the result for "CC(C)CCNc1ncccc1C(=O)N1CCN(Cc2ccccc2)CC1" ?
inactive

Fill in: this test's call for "Cc1c(C(=O)Nc2ccc(N3CCC(N4CCOCC4)CC3)c(C#N)c2)cnn1-c1ccc(Cl)cc1" is ___
inactive

Please state the recorded outcome for this compound: COC1CC(=O)C23C(=O)NC(Cc4c[nH]c5ccccc45)C2C(C)C2(C)OC2C3/C=C/CC(C)CC1O (stereo not drawn)
inactive

Each recorded value in this set is attributed to PubChem BioAssay (NCATS).
